- STUDY_SYSTEM: SARS-CoV-2 prefusion stabilized trimer protein (WIV02 isolate spike protein) (UniProt P0DTC2 14-1213)
- ASSAY_NOTES: ELISA
METRIC_NAME: EC50 (nM)
Value expressed in nM; do not type the unit.

Noted for 8-A17-A (antibody, V domains shown) VH: QVQLKESGPGLVAPSQSLSITCTVSGFSLTSYAISWVRQPPGKGLEWLGVVWPGGGTNYNSALKSRLSINKDNSKSQVFLKMNSLQTDDTGRYYCARTGYHFDYWGQGTTLTVSS VL: QIVLTQSPAIMSASPGEKVTMTCSVSSSVSYMHWYQQKSGTSPKRWIYDTSKLASGVPARFSGSGSGTSYSLTISSMEAEDAATYYCQQWSSNPPMYTFGGGTKLEIK : its EC50 reads 0.27

Noted for 2-J9-A (antibody, V domains shown) VH: EVQLQQSGPELVKPGASVKMSCKASGYTFTDYNIHWVKQSHGKSLEWIGYINPNNGGTDYNQKFQGKATLTVNKSSSTAYMELRSLTSEDSAVYYCARGGFYGNYGAYYGMDFWGQGTSVTVSS VL: DIQMTQSPASLSASVGETVTITCRTSENIYSHLAWYQQTQGKSPQLLVYNTKTLAEGVPSRFTGSGSGTQFSLKINSLQPEDFGSYYCQHHYGIPPEFGGGTKLEIK : its EC50 reads 0.08

Noted for 2-P2-A (antibody, V domains shown) VH: EVQLQQSGAELVRPGSSVKMSCKTSGYTFTSYGINWVKQRPGQGLEWIGYIYIGNGYTEYNEKFKGKATLTSDTSSSTAYMQLSSLTSEDSAIYFCARGGVDYWGQGTTLTVSS VL: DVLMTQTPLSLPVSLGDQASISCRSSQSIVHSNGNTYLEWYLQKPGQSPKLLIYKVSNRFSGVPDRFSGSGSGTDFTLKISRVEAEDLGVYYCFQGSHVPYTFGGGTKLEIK : its EC50 reads 0.13
